- assay_text: gradient 5% acetonitrile 3 min, to 50% in 2 min, to 85% in 15 min, held 3 min, 100 µL/min
- particulars: column: Zorbax Extend-C18 2.1 x 50 mm; eluents: water / acetonitrile, 0.1% formic acid
result_type: RP-LC retention time (s)

Completed entries (count: 5):
1) COc1ccc(NC(=O)C2CC(=O)N(c3ccc4c(c3)CCN4C(=O)C3CC3)C2)c(C)c1 (stereo not given): 740
2) Cc1cc(NC(=O)C2CCN(C(=O)c3ccco3)CC2)no1: 630
3) CCC(=O)N1CCc2c([nH]c3ccccc23)C12C(=O)N(C)c1ccc(Br)cc12 (stereo not given): 939
4) Cc1ccc(Nc2nc(-c3cc(C)ccc3C)cs2)nc1: 902
5) Cc1nc(-c2csc(S(=O)(=O)N3CCC(C(=O)N4CCN(C)CC4)CC3)c2)no1: 616

1: Cc1cnc(C(=O)N2CCC(n3c(C)cnc3C3CCC3)C2)cn1 (stereo not given)
2: CC(C)c1ccc(Nc2c(-c3ccc(N4CCOCC4)cc3)nc3ncccn23)cc1
Which has the higher RP-LC retention time, 1 or 2 ? Give the label of your selection.
2
(2: 806 s, 1: 560 s)

1: CC(C)NC(=O)c1ccc(CN2CCN(Cc3ccc(F)cc3)C(=O)C2=O)cc1
2: Cc1ccc(-c2noc(CN3C(=O)C(C)Oc4ccccc43)n2)cc1 (stereo not given)
From the items above, decide which of 1 and 2 has the lower RP-LC retention time reading. Give the label of your selection.
1

1: COCCNC(=O)C1(c2ccc(NC(=O)c3cccs3)cc2)CC1
2: Cc1cccc(Oc2nccnc2N2CCC(C(=O)NC3CCCCCC3)CC2)c1
Which has the higher RP-LC retention time, 1 or 2 ? Give the label of your selection.
2
(2: 1110 s, 1: 730 s)

A: CCN(CC)S(=O)(=O)c1ccc2c(c1)CC(C(=O)N1CCC(C)CC1)N2C(C)=O (stereo not given)
B: O=C(NCCN1CCN(S(=O)(=O)c2ccccc2)CC1)c1c(F)cccc1Cl
Which has the higher RP-LC retention time, A or B ? Give the label of your selection.
A
(A: 849 s, B: 574 s)

---

- assay_text: gradient 5% acetonitrile 3 min, to 50% in 2 min, to 85% in 15 min, held 3 min, 100 µL/min
- particulars: column: Zorbax Extend-C18 2.1 x 50 mm; eluents: water / acetonitrile, 0.1% formic acid
result_type: RP-LC retention time (s)

1) COCCCn1c(=O)c2ccccc2n(Cc2nc(-c3ccc(OC(C)C)cc3)no2)c1=O: 1120

a: Cc1cc(C(=O)N2CCCCCC2)nc2cc(-c3cccs3)nn12
b: COc1ccc(NC(=O)N2CCC(N3C[C@H]4C[C@H](C3)[C@H]3CCCC(=O)N3C4)CC2)cc1
From the items above, decide which of a and b has the lower RP-LC retention time reading. Give the label of your selection.
b

---

- assay_text: gradient 5% acetonitrile 3 min, to 50% in 2 min, to 85% in 15 min, held 3 min, 100 µL/min
- particulars: column: Zorbax Extend-C18 2.1 x 50 mm; eluents: water / acetonitrile, 0.1% formic acid
result_type: RP-LC retention time (s)

Completed entries (count: 3):
1. CCc1ccc(NC(=O)Cn2c(N3CCCCC3)nc(C)cc2=O)cc1: 661
2. Cn1c(=O)n(C)c2cc(CNc3ccc(N4CCOCC4)cc3)ccc21: 600
3. CCOc1cccc(-c2noc(Cn3c(=O)n(Cc4ccccc4)c(=O)c4sccc43)n2)c1: 1160

1: Cc1cccc(-c2ocnc2C(=O)NC2CCN(C)CC2)c1
2: CCOC(=O)c1sc(NC(=O)C2CCC2)nc1-c1ccccc1
From the items above, decide which of 1 and 2 has the lower RP-LC retention time reading. Give the label of your selection.
1
(1: 618 s, 2: 1010 s)

---

- assay_text: gradient 5% acetonitrile 3 min, to 50% in 2 min, to 85% in 15 min, held 3 min, 100 µL/min
- particulars: column: Zorbax Extend-C18 2.1 x 50 mm; eluents: water / acetonitrile, 0.1% formic acid
result_type: RP-LC retention time (s)

1) COc1ccc2c(c1)C1(CCN(C(=O)Nc3ccc(C)cc3)C1)C(=O)N2 (stereo not drawn): 745
2) CCOC(=O)c1ccc(Nc2c(-c3ccc(Cl)cc3)nc3cnccn23)cc1: 964
3) COC(=O)c1ccc(-c2csc(NC(=O)C3CCCC3)n2)cc1: 942

---

- assay_text: gradient 5% acetonitrile 3 min, to 50% in 2 min, to 85% in 15 min, held 3 min, 100 µL/min
- particulars: column: Zorbax Extend-C18 2.1 x 50 mm; eluents: water / acetonitrile, 0.1% formic acid
result_type: RP-LC retention time (s)

1. O=C(Cn1cnc2c(sc3nc(-c4ccccc4)ccc32)c1=O)NCc1ccc2c(c1)OCO2: 950
2. CCCNc1nc(N)c2ccccc2n1: 573
3. COc1cc(OC)cc(-c2nc(-c3cn(-c4ccc(F)cc4)nn3)no2)c1: 809
4. COCCNC(=O)c1cn2cccc(C)c2n1: 561
5. CC(=O)Nc1ccc(S(=O)(=O)N2CCCn3nc(-c4cccc(Cl)c4)cc3C2)cc1: 910
6. COc1ccc(-c2cn3c(CC(=O)NCc4cccc(Br)c4)csc3n2)cc1OC: 764

I: COc1ccc(C)cc1NC(=O)C1CCCN(S(=O)(=O)c2c[nH]c(C(=O)N3CCCC3)c2)C1 (stereo unspecified)
II: CCn1ccc(C(=O)N2CCC(n3c(C)cnc3C3CCC3)C2)n1 (stereo unspecified)
Which has the higher RP-LC retention time, I or II ? Give the label of your selection.
I
(I: 824 s, II: 576 s)

---

- assay_text: gradient 5% acetonitrile 3 min, to 50% in 2 min, to 85% in 15 min, held 3 min, 100 µL/min
- particulars: column: Zorbax Extend-C18 2.1 x 50 mm; eluents: water / acetonitrile, 0.1% formic acid
result_type: RP-LC retention time (s)

Completed entries (count: 5):
1. CC(C)n1c(=O)sc2cc(S(=O)(=O)N3CCC(C(=O)NC4CCCC4)CC3)ccc21: 896
2. CCCN(CCC)CCNC(=O)C1CCC(=O)N(c2ccc(OC)cc2)C1c1ccc(F)cc1 (configuration not stated): 649
3. O=C(NCC1CCN(C(=O)Oc2ccccc2)CC1)Nc1ccccc1Cl: 881
4. Cc1cc(C)cc(NC(=O)C2CCN(S(=O)(=O)c3ccc4[nH]c(=O)sc4c3)CC2)c1: 851
5. CCc1nccn1Cc1nc(-c2cccc(Cl)c2)no1: 667

P: Cc1ccc(NS(=O)(=O)c2ccc(-c3nnc(C4CCC4)o3)o2)c(F)c1
Q: CCNC(=O)c1cn(-c2ccc(SCC(=O)Nc3ccc4c(c3)OCCO4)nn2)cn1
Which has the higher RP-LC retention time, P or Q ? Give the label of your selection.
P

---

- assay_text: gradient 5% acetonitrile 3 min, to 50% in 2 min, to 85% in 15 min, held 3 min, 100 µL/min
- particulars: column: Zorbax Extend-C18 2.1 x 50 mm; eluents: water / acetonitrile, 0.1% formic acid
result_type: RP-LC retention time (s)

1. Clc1cccc(CSc2ncnc3nc[nH]c23)c1: 765
2. COCc1nnc(C(=O)Nc2ccc(C(=O)NCCc3c[nH]c4ccc(C)cc34)cc2)s1: 844
3. CCOC(=O)c1nc(Nc2ccc(S(=O)(=O)Nc3nc(C)cc(C)n3)cc2)c2ccccc2n1: 692
4. COc1cccc(CNC(=O)c2c(C)sc3ccn(CC(C)C)c(=O)c23)c1: 960
5. CSc1ccc(-c2nc3cnccn3c2Nc2ccc(C(=O)O)cc2)cc1: 719
6. O=C(c1ccncc1)N1CC(C(=O)N2CCN(c3ccccn3)CC2)C2(CCCCC2)C1 (configuration not stated): 570
7. CCOc1ccccc1CNC(=O)CCc1nnc2c3cc(-c4ccc(OC)cc4)nn3ccn12: 797

---

- assay_text: gradient 5% acetonitrile 3 min, to 50% in 2 min, to 85% in 15 min, held 3 min, 100 µL/min
- particulars: column: Zorbax Extend-C18 2.1 x 50 mm; eluents: water / acetonitrile, 0.1% formic acid
result_type: RP-LC retention time (s)

Completed entries (count: 4):
1. Cc1nc(-c2ccc(N3CCN(C(=O)c4cccc(C#N)c4)CC3)nc2)sc1C: 825
2. O=C(COc1ccccc1)N1CCN(Cc2noc3ccccc23)CC1: 708
3. CC(C)N(C(=O)CSc1nc2ccccc2[nH]1)c1ccccc1: 650
4. Cc1noc(/C=C\c2ccc(S(=O)(=O)N3CCOCC3)cc2)c1NC(=O)C1CC1: 777

A: CCOc1ccc2nc(Nc3ncc4c(n3)CC(c3ccc(OC)cc3)CC4=O)nc(C)c2c1 (stereo not given)
B: COc1cccc(-c2csc(CN3CCNCC3)n2)c1
C: COc1cccc(-c2nc(C3CCN(S(=O)(=O)c4ccc5c(c4)CCC5)CC3)no2)c1
// ascending sort on recorded RP-LC retention time I would appreciate it if you listed the labels in the requested order.
B, A, C

1: Cc1nnc(N2CCCC(C(=O)N3CCN(c4ccccn4)CC3)C2)c2nn(-c3ccccc3)c(C)c12 (stereo not given)
2: O=c1c(S(=O)(=O)N2CCCC2)cccn1Cc1cccc(Cl)c1
Which has the higher RP-LC retention time, 1 or 2 ? Give the label of your selection.
2
(2: 902 s, 1: 584 s)

The measurements presented in this section are drawn from the METLIN SMRT retention time set (Domingo-Almenara et al. 2019).
